- target_of_assay: T1, HCV ORFs (Gal4-DB fusions) (Hepatitis C virus genotype 1b, UniProt Q9WMX2);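 further: yeast two-hybrid screens using HCV genotype 1b proteins fused to Gal4-DB as baits against prey cDNA libraries from human spleen and foetal brain, IMAP1 via transformation and IMAP2 via mating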
- T1 construct: expressed in transfected cells; host or cells: Saccharomyces cerevisiae MAV203 (IMAP1) / AH109 (IMAP2)
- Assay type: binding, HCV genotype 1b, isolate con1
- setup_conditions: HCV protein NS5A as bait; human protein as prey
Here the recorded IMAP Y2H IMAP2 (number of IST) is given for each entry.
Please give only the number in your answer, with no unit.

Use the examples below as a reference point.
[[record]]
molecule = "PSMB9 (protein, UniProt P28065 21-219, looked up) Proteasome subunit beta type-9: TTIMAVEFDGGVVMGSDSRVSAGEAVVNRVFDKLSPLHERIYCALSGSAADAQAVADMAAYQLELHGIELEEPPLVLAAANVVRNISYKYREDLSAHLMVAGWDQREGGQVYGTLGGMLTRQPFAIGGSGSTFIYGYVDAAYKPGMSPEECRRFTTDAIALAMSRDGSSGGVIYLVTITAAGVDHRVILGNELPKFYDE"
recorded_number = 38

[[record]]
molecule = "IGLL1 (protein, UniProt P15814 38-213, looked up) Immunoglobulin lambda-like …: LLRPTAASQSRALGPGAPGGSSRSSLRSRWGRFLLQRGSWTGPRCWPRGFQSKHNSVTHVFGSGTQLTVLSQPKATPSVTLFPPSSEELQANKATLVCLMNDFYPGILTVTWKADGTPITQGVEMTTPSKQSNNKYAASSYLSLTPEQWRSRRSYSCQVMHEGSTVEKTVAPAECS"
recorded_number = 1


--- query ---
Form field: reported IMAP Y2H IMAP2 (number of IST) of ARFIP1 (protein, UniProt P53367 2-373, looked up) Arfaptin-1: AQESPKNSAAEIPVTSNGEVDDSREHSFNRDLKHSLPSGLGLSETQITSHGFDNTKEGVIEAGAFQGSPAPPLPSVMSPSRVAASRLAQQGSDLIVPAGGQRTQTKSGPVILADEIKNPAMEKLELVRKWSLNTYKCTRQIISEKLGRGSRTVDLELEAQIDILRDNKKKYENILKLAQTLSTQLFQMVHTQRQLGDAFADLSLKSLELHEEFGYNADTQKLLAKNGETLLGAINFFIASVNTLVNKTIEDTLMTVKQYESARIEYDAYRTDLEELNLGPRDANTLPKIEQSQHLFQAHKEKYDKMRNDVSVKLKFLEENKVKVLHNQLVLFHNAIAAYFAGNQKQLEQTLKQFHIKLKTPGVDAPSWLEEQ
9
